- Test system: 126254-015-R-J1-PDC complex spheroid growth, % test/control;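 note: spheroids exposed to compound for seven days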
- protocol-notes: Anticancer human tumor 126254-015-R-J1-PDC patient-derived soft tissue sarcoma cell line growth inhibition [Asc]
- condition-description: curve of first compound; second compound 0.316 µM
measured-property: pIC50
Keep it numeric: pIC50 is minus log10 of the concentration in mol/L.

Exercise: Form field: reported pIC50 of O=C(c1cc(Cc2n[nH]c(=O)c3ccccc23)ccc1F)N1CCN(C(=O)C2CC2)CC1 + Cc1c(S(C)(=O)=O)c(-c2cc(F)cc(N3CCN(c4ccc(NS(=O)(=O)c5ccc(NC(CCN6CCC(C(=O)OCCCP(=O)(O)O)CC6)CSc6ccccc6)c(S(=O)(=O)C(F)(F)F)c5)cc4)CC3)c2)c(-c2ccc(Cl)cc2)n1C(C)C
Key: 5.01

Exercise: Follow-up entry: COc1c(OCCCN2CCOCC2)ccc2c3n(c(=NC(=O)c4cnc(N)nc4)nc12)CCN3 + Cc1c(S(C)(=O)=O)c(-c2cc(F)cc(N3CCN(c4ccc(NS(=O)(=O)c5ccc(NC(CCN6CCC(C(=O)OCCCP(=O)(O)O)CC6)CSc6ccccc6)c(S(=O)(=O)C(F)(F)F)c5)cc4)CC3)c2)c(-c2ccc(Cl)cc2)n1C(C)C
Key: 7.36

Exercise: Follow-up entry: Cc1nc(N2CCC3(CC2)COC(C)C3N)c(CO)nc1Sc1ccnc(N)c1Cl (stereo not drawn) + CNC(C)C(=O)NC1CN(S(=O)(=O)c2cccc(S(=O)(=O)N3CCC4CCC(C(=O)NC(c5ccccc5)c5ccccc5)N4C(=O)C(NC(=O)C(C)NC)C3)c2)CCC2CCC(C(=O)NC(c3ccccc3)c3ccccc3)N2C1=O
Key: 6.58

Exercise: Follow-up entry: NC(=O)C(=Cn1cnc(-c2cc(C(F)(F)F)cc(C(F)(F)F)c2)n1)c1cncnc1 + CNC(C)C(=O)NC1CN(S(=O)(=O)c2cccc(S(=O)(=O)N3CCC4CCC(C(=O)NC(c5ccccc5)c5ccccc5)N4C(=O)C(NC(=O)C(C)NC)C3)c2)CCC2CCC(C(=O)NC(c3ccccc3)c3ccccc3)N2C1=O
Key: 7.77

Exercise: Follow-up entry: C=C(F)C(=O)N1CCN(c2nc(OCC3CCCN3C)nc3c2CCN(c2cccc4cccc(Cl)c24)C3)CC1CC#N (stereo not drawn) + CNC(C)C(=O)NC1CN(S(=O)(=O)c2cccc(S(=O)(=O)N3CCC4CCC(C(=O)NC(c5ccccc5)c5ccccc5)N4C(=O)C(NC(=O)C(C)NC)C3)c2)CCC2CCC(C(=O)NC(c3ccccc3)c3ccccc3)N2C1=O
Key: 5.92

Exercise: Follow-up entry: O=C(c1ccc(F)c(F)c1Nc1ccc(I)cc1F)N1CC(O)([C@@H]2CCCCN2)C1 + Cc1c(S(C)(=O)=O)c(-c2cc(F)cc(N3CCN(c4ccc(NS(=O)(=O)c5ccc(NC(CCN6CCC(C(=O)OCCCP(=O)(O)O)CC6)CSc6ccccc6)c(S(=O)(=O)C(F)(F)F)c5)cc4)CC3)c2)c(-c2ccc(Cl)cc2)n1C(C)C
Key: 6.30

Exercise: Follow-up entry: C#Cc1c(F)ccc2cc(O)cc(-c3ncc4c(N5CC6CCC(C5)N6)nc(OCC56CCCN5CC(F)C6)nc4c3F)c12 (stereo not drawn) + CNC(C)C(=O)NC1CN(S(=O)(=O)c2cccc(S(=O)(=O)N3CCC4CCC(C(=O)NC(c5ccccc5)c5ccccc5)N4C(=O)C(NC(=O)C(C)NC)C3)c2)CCC2CCC(C(=O)NC(c3ccccc3)c3ccccc3)N2C1=O
Key: 5.05

Exercise: Follow-up entry: O=C(c1cc(Cc2n[nH]c(=O)c3ccccc23)ccc1F)N1CCN(C(=O)C2CC2)CC1 + CNC(C)C(=O)NC1CN(S(=O)(=O)c2cccc(S(=O)(=O)N3CCC4CCC(C(=O)NC(c5ccccc5)c5ccccc5)N4C(=O)C(NC(=O)C(C)NC)C3)c2)CCC2CCC(C(=O)NC(c3ccccc3)c3ccccc3)N2C1=O
Key: 5.44

Exercise: Follow-up entry: Cn1ncnc1[C@H]1c2n[nH]c(=O)c3cc(F)cc(c23)N[C@@H]1c1ccc(F)cc1 + CNC(C)C(=O)NC1CN(S(=O)(=O)c2cccc(S(=O)(=O)N3CCC4CCC(C(=O)NC(c5ccccc5)c5ccccc5)N4C(=O)C(NC(=O)C(C)NC)C3)c2)CCC2CCC(C(=O)NC(c3ccccc3)c3ccccc3)N2C1=O
Key: 7.88
